This collection of values is drawn from PubChem BioAssay (NCI).

System: ACHN renal
TEST NAME: NCI-60 one-dose screen, 48 h (100 = growth as untreated, 0 = no growth, -100 = all killed)
MEASUREMENT SETUP: 10 µM unless noted
Compounds without any hit were thinned out: in the full panel of roughly 83,000, 20% have a hit.
Each entry gets Not met if its growth stays under 60%, and Met if its growth is 60% or above.

[[record]]
compound = "N#Cc1nc(-c2ccccc2)oc1S(=O)(=O)NCC(c1ccc(Cl)cc1)N1CCCCC1 (configuration not stated)"
class_label = "Met"

[[record]]
compound = "O=C(Nc1nc2ccc(C(F)(F)F)cc2s1)c1cc(Cl)ccc1O"
class_label = "Not met"

[[record]]
compound = "Nc1c(C(=O)Nc2ccccn2)sc2nc3c(cc12)CCCC3"
class_label = "Met"

[[record]]
compound = "C=C1C(=O)O[C@H]2[C@H]1CC/C(C=Nc1c(N)cc(F)cc1Br)=C\\CC[C@@]1(C)O[C@@H]21"
class_label = "Met"

[[record]]
compound = "COc1ccc(NC(=O)Nc2ccc(Nc3nc(C)cc(Nc4ccc(C)cc4)n3)cc2)cc1"
class_label = "Not met"

[[record]]
compound = "C=C1C(=O)O[C@H]2[C@H]1CC/C(C=Nc1c(N)cc(C(F)(F)F)cc1Br)=C\\CC[C@@]1(C)O[C@@H]21"
class_label = "Not met"

[[record]]
compound = "CC(C)C1=C[C@@]23CC[C@H]4[C@](C)(COCCC#N)CCC[C@]4(C)[C@H]2C[C@@H]1[C@@H]1[C@H]3[C@@H](OCCC#N)CC[C@@H]1OCCC#N"
class_label = "Not met"

[[record]]
compound = "C=C(C)[C@@H]1CC[C@]2(C(=O)OCCOCCOCC[P+](c3ccccc3)(c3ccccc3)c3ccccc3)CC[C@]3(C)[C@H](CC[C@@H]4[C@@]5(C)CC[C@H](OC(C)=O)C(C)(C)[C@@H]5CC[C@]43C)[C@@H]12"
class_label = "Not met"

[[record]]
compound = "Cc1c(Br)cccc1NC(=O)c1sc2nc3c(cc2c1N)CN(Cc1ccccc1)CC3"
class_label = "Not met"

[[record]]
compound = "O=C1c2ccccc2C(=O)c2c1oc1c2c(=O)[nH]c2ccccc21"
class_label = "Met"

[[record]]
compound = "COc1ccc(-c2cn(-c3ccc(Cl)cc3)c(=S)[nH]2)cc1OC"
class_label = "Met"

[[record]]
compound = "COc1cc(C2=NNC(c3ccc(N(C)C)cc3)C2)cc(OC)c1OC (configuration not stated)"
class_label = "Not met"

[[record]]
compound = "O=C(Nc1cc(Nc2ncccc2-c2ncnc3nc[nH]c23)ccc1F)c1cc(C(F)(F)F)cc(C(F)(F)F)c1"
class_label = "Not met"

[[record]]
compound = "C=C(C)[C@@H]1CC[C@]2(C(=O)OCCCC[P+](c3ccccc3)(c3ccccc3)c3ccccc3)CC[C@]3(C)[C@H](CC[C@@H]4[C@@]5(C)CC[C@H](OC(=O)C(Cl)Cl)C(C)(C)[C@@H]5CC[C@]43C)[C@@H]12"
class_label = "Not met"

[[record]]
compound = "COc1ccc(OCC(=O)OC(C)C)cc1"
class_label = "Met"

[[record]]
compound = "C#CCOC(=O)[C@]1(C)CCC[C@]2(C)[C@H]3C[C@H]4C(C(C)C)=C[C@]3(CC[C@H]21)[C@@H]1C(=O)CCC(=O)[C@@H]14"
class_label = "Met"

[[record]]
compound = "CC1(C)Cc2c(Br)c(Br)c(Br)c(OCC(O)CN3CCOCC3)c2O1 (configuration not stated)"
class_label = "Met"

